# assay: Cell Viability - H-4-II-E (AID 543);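 also: cells exposed to compound for 40 hours; nearly all actives have a fitted effect of over 35% in size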; also: potency is read from the fitted curve at half-maximal effect
# protocol conditions: H-4-II-E rat hepatoma viability; series mostly up to 92.2 µM
Inconclusive results are not listed. Active and inactive are the calls of the source. Calls follow the shape of the dose curve; as a rule, active = well fitted cell-killing curve with a large enough effect; inconclusive = small, poorly fitted or top-dose-only effect; inactive = flat fitted curve, though single readings scatter.
measured endpoint: Potency

CC/C(=C(\c1ccccc1)c1ccc(OCCN(C)C)cc1)c1ccccc1 : 50.1 µM (active)
CC1=C(/C=C/C(C)=C/C=C/C(C)=C/C(=O)Nc2ccc(O)cc2)C(C)(C)CCC1 : 20 µM (active)
CC(=O)c1ccc(S(=O)(=O)NC(=O)NC2CCCCC2)cc1 : inactive
CCn1cc(C(=O)O)c(=O)c2ccc(C)nc21 : inactive

Task: Read the entry O=C1NC(=O)C(c2ccccc2)(c2ccccc2)N1 and write its reported Potency.
Result: inactive

Task: Read the entry CN(C)CCC(c1ccccc1)c1ccccn1 (stereo unspecified) and write its reported Potency.
Result: inactive

All values here come from PubChem BioAssay (NCATS).
